# reported pIC50; entries follow
EXPERIMENTAL TARGET: HLA DQ molecule DQB1*0602 (human)
ASSAY TEXT: inhibition of radiolabeled peptide binding to purified HLA DQ
pIC50: −log10 of the molar value.

BINDER: FKAAVAAAAGAPPAD [Poa p 5 peptide, position 61 (Peptide ID 3324.1575)]
pIC50: 6.10
--
BINDER: DINVGFKAAVAAAAG [Poa p 5 peptide, position 56 (Peptide ID 3324.1571)]
pIC50: 7.47
--
BINDER: QKLMEDINVGFKAAV [Poa p 5 peptide, position 51 (Peptide ID 3324.1580)]
pIC50: 5.89
--
BINDER: FTSLEYIEAAKWLLP [Sal k 1 1 peptide, position 321 (Peptide ID 3324.1589)]
pIC50: 5.89
